- System: PC9
- EXPERIMENTAL DETAILS: AKT reporter activity score (signed KS statistic vs DMSO) (signed KS statistic (-1 to 1)); higher = stronger activation of the pathway reporter relative to DMSO
- COND: 0.5 µM; time after treatment 48 h; PC9 signalome
REPORTED PROPERTY: AKT reporter activity score

CO[C@H]1C[C@@H]2CC[C@@H](C)[C@@](O)(O2)C(=O)C(=O)N2CCCC[C@H]2C(=O)O[C@H]([C@H](C)C[C@@H]2CC[C@@H](OP(C)(C)=O)[C@H](OC)C2)CC(=O)[C@H](C)/C=C(\C)[C@@H](O)[C@@H](OC)C(=O)[C@H](C)C[C@H](C)/C=C/C=C/C=C/1C [Deforolimus (MK-8669)] : 0.241

# context switch: different compound, same AKT reporter activity score
Query :: Recorded AKT reporter activity score of CO[C@H]1C[C@@H]2CC[C@@H](C)[C@@](O)(O2)C(=O)C(=O)N2CCCC[C@H]2C(=O)O[C@H]([C@H](C)C[C@@H]2CC[C@@H](O)[C@H](OC)C2)CC(=O)[C@H](C)/C=C(\C)[C@@H](O)[C@@H](OC)C(=O)[C@H](C)C[C@H](C)/C=C/C=C/C=C/1C [Rapamycin (Sirolimus)] , please.
Result :: 0.0788

---

Measured p38 reporter activity score by item
- Tested on: PC9
- EXPERIMENTAL DETAILS: p38 reporter activity score (signed KS statistic vs DMSO) (signed KS statistic (-1 to 1)); higher = stronger activation of the pathway reporter relative to DMSO
- COND: 0.5 µM; time after treatment 48 h; PC9 signalome
Counter-ions that a name gives are not always drawn.
No unit in the answer, only the number.

Known results for compounds:
COc1cc2ncnc(Nc3ccc(F)c(Cl)c3)c2cc1NC(=O)/C=C/CN1CCCCC1 : -0.404
CN1CCN(c2nc(C3=C(c4c[nH]c5ccccc45)C(=O)NC3=O)c3ccccc3n2)CC1 : 0.268
CN1CC[C@H](c2c(O)cc(O)c3c(=O)cc(-c4ccccc4Cl)oc23)[C@H](O)C1 [Flavopiridol hydrochloride] : -0.475
CCN(CC)CCNC(=O)c1c(C)[nH]c(/C=C2\C(=O)Nc3ccc(F)cc32)c1C [Sunitinib Malate (Sutent)] : 0.139
C[C@H](NC(=O)Cc1cc(F)cc(F)c1)C(=O)N[C@@H]1C(=O)N(C)c2ccccc2-c2ccccc21 : 0.0414
COc1ccc(-c2cc3c(C)nc(N)nc3n([C@H]3CC[C@H](OCCO)CC3)c2=O)cn1 : -0.364
Cc1nc(NC(=O)N2CCC[C@H]2C(N)=O)sc1-c1ccnc(C(C)(C)C(F)(F)F)c1 : 0.131

Query :: Recorded p38 reporter activity score of COc1ccc(-c2ccc3c(N4CCOC[C@@H]4C)nc(N4CCOC[C@@H]4C)nc3n2)cc1CO , please.
Result :: -0.297

---

- Test system: PC9
- EXPERIMENTAL DETAILS: AKT reporter activity score (signed KS statistic vs DMSO) (signed KS statistic (-1 to 1)); higher = stronger activation of the pathway reporter relative to DMSO
- COND: 0.5 µM; time after treatment 48 h; PC9 signalome
REPORTED PROPERTY: AKT reporter activity score
No unit in the answer, only the number.

Query :: Query the reported AKT reporter activity score for PC9; item: COc1ccc(-c2ccc3c(N4CCOC[C@@H]4C)nc(N4CCOC[C@@H]4C)nc3n2)cc1CO
Result :: -0.0864

Query :: What do you get for CC(=O)Nc1cccc(-n2c(=O)n(C3CC3)c(=O)c3c(Nc4ccc(I)cc4F)n(C)c(=O)c(C)c32)c1 ?
Result :: 0.278

---

- System: PC9
- EXPERIMENTAL DETAILS: JNK reporter activity score (signed KS statistic vs DMSO) (signed KS statistic (-1 to 1)); higher = stronger activation of the pathway reporter relative to DMSO
- COND: 0.5 µM; time after treatment 48 h; PC9 signalome
REPORTED PROPERTY: JNK reporter activity score
No unit in the answer, only the number.

Known results for compounds:
Cc1cc(C(=O)NOCCO)c(Nc2ccc(I)cc2F)n(C)c1=O : 0.22
O=C(NCCCNc1nc(Nc2cccc(NC(=O)N3CCCC3)c2)ncc1I)c1cccs1 : -0.102
C=CC(=O)Nc1cccc(Oc2nc(Nc3ccc(N4CCN(C)CC4)cc3)ncc2Cl)c1 : 0.152
CC(C)n1nc(-c2cc3cc(O)ccc3[nH]2)c2c(N)ncnc21 : -0.0693
CO[C@H]1C[C@@H]2CC[C@@H](C)[C@@](O)(O2)C(=O)C(=O)N2CCCC[C@H]2C(=O)O[C@H]([C@H](C)C[C@@H]2CC[C@@H](OP(C)(C)=O)[C@H](OC)C2)CC(=O)[C@H](C)/C=C(\C)[C@@H](O)[C@@H](OC)C(=O)[C@H](C)C[C@H](C)/C=C/C=C/C=C/1C : -0.0745

Query :: Recorded JNK reporter activity score of CC(C)CC(=O)Nc1n[nH]c2c1CN(C(=O)C1CCN(C)CC1)C2(C)C , please.
Result :: -0.179

Query :: What do you get for CC(C)NC[C@@H](C(=O)N1CCN(c2ncnc3c2[C@H](C)C[C@H]3O)CC1)c1ccc(Cl)cc1 ?
Result :: -0.0989

---

- Test system: PC9
- EXPERIMENTAL DETAILS: p38 reporter activity score (signed KS statistic vs DMSO) (signed KS statistic (-1 to 1)); higher = stronger activation of the pathway reporter relative to DMSO
- COND: 0.5 µM; time after treatment 48 h; PC9 signalome
Where a name gives a salt, the structure may show the parent alone.
Measured p38 reporter activity score by item
No unit in the answer, only the number.

Known results for compounds:
Cc1[nH]nc2ccc(-c3cncc(OC[C@@H](N)Cc4ccccc4)c3)cc12 : 0.056
CC(=O)Nc1cccc(-n2c(=O)n(C3CC3)c(=O)c3c(Nc4ccc(I)cc4F)n(C)c(=O)c(C)c32)c1 : 0.0617

# context switch: different compound, same p38 reporter activity score
Query :: Query the reported p38 reporter activity score for PC9; item: COc1cccc2c1C(=O)c1c(O)c3c(c(O)c1C2=O)C[C@@](O)(C(C)=O)C[C@@H]3O[C@H]1C[C@H](N)[C@H](O)[C@H](C)O1 [Daunorubicin HCl (Daunomycin HCl)]
Result :: -0.245

---

- Test system: PC9
- EXPERIMENTAL DETAILS: WNT reporter activity score (signed KS statistic vs DMSO) (signed KS statistic (-1 to 1)); higher = stronger activation of the pathway reporter relative to DMSO
- COND: 0.5 µM; time after treatment 48 h; PC9 signalome
Tag: TRUE if measured WNT reporter activity score is not below 0.3, FALSE if it is.

Query :: Textbook exercise: given the entry Nc1ncnc2c1c(-c1cnc3[nH]ccc3c1)nn2C1CCCC1 , state whether its WNT reporter activity score is greater than or equal to 0.3.
Result :: FALSE

---

Measured p38 reporter activity score by item
- Tested on: PC9
- EXPERIMENTAL DETAILS: p38 reporter activity score (signed KS statistic vs DMSO) (signed KS statistic (-1 to 1)); higher = stronger activation of the pathway reporter relative to DMSO
- COND: 0.5 µM; time after treatment 48 h; PC9 signalome
No unit in the answer, only the number.

COc1ccc(-c2ccc3c(N4CCOCC4)nc(N4C[C@@H](C)O[C@@H](C)C4)nc3n2)cc1CO : -0.0964
CCn1c(-c2nonc2N)nc2c(C#CC(C)(C)O)ncc(OC[C@H]3CCCNC3)c21 : -0.189
Nc1ncnc2c1c(-c1cnc3[nH]ccc3c1)nn2C1CCCC1 : -0.374

# context switch: different molecule, same p38 reporter activity score
Query :: Recorded p38 reporter activity score of Cc1ccc([N+](=O)[O-])cc1S(=O)(=O)N(C)/N=C/c1cnc2ccc(Br)cn12 , please.
Result :: -0.118

---

- System: PC9
- EXPERIMENTAL DETAILS: PKA reporter activity score (signed KS statistic vs DMSO) (signed KS statistic (-1 to 1)); higher = stronger activation of the pathway reporter relative to DMSO
- COND: 0.5 µM; time after treatment 48 h; PC9 signalome
Where a name gives a salt, the structure may show the parent alone.
Measured PKA reporter activity score by item

Known results for compounds:
CN1CC[C@H](c2c(O)cc(O)c3c(=O)cc(-c4ccccc4Cl)oc23)[C@H](O)C1 [Flavopiridol hydrochloride] : -0.608
COc1ccc(-c2ccc3c(N4CCOCC4)nc(N4C[C@@H](C)O[C@@H](C)C4)nc3n2)cc1CO : -0.114
COc1ncc(-c2ccc3nccc(-c4ccnnc4)c3c2)cc1NS(=O)(=O)c1ccc(F)cc1F : -0.254
Cc1nc(NC(=O)N2CCC[C@H]2C(N)=O)sc1-c1ccnc(C(C)(C)C(F)(F)F)c1 [Alpelisib (BYL719)] : -0.0979

# context switch: different compound, same PKA reporter activity score
Query :: Recorded PKA reporter activity score of C[C@@H](Oc1cc(-n2cnc3ccc(CN4CCN(C)CC4)cc32)sc1C(N)=O)c1ccccc1C(F)(F)F , please.
Result :: 0.141
